Provenance of the data: ChEMBL document CHEMBL5113531

- Experimental Target: Cytochrome P450 3A4 (Homo sapiens)
- Sequence (P08684 whole entry): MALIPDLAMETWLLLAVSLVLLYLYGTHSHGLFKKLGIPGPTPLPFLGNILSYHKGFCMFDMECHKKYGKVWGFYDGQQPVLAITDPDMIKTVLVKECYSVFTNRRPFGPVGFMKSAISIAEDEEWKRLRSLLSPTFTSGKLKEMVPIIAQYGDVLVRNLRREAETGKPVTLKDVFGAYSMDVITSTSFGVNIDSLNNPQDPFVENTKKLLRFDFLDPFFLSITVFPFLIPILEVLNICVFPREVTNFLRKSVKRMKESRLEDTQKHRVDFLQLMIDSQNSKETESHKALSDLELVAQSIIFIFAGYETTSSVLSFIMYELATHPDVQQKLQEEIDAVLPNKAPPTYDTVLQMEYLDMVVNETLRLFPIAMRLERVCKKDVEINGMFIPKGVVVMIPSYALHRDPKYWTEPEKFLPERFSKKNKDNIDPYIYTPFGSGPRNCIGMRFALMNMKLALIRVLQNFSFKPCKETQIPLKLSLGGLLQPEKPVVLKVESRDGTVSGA
Property Label: IC50 (µM)
Give just the numeric value; µM need not be written.

In: Which value of IC50 has been reported for Cc1cccc2sc(NC(=O)CCN3CCN(c4ccncc4)CC3)nc12 in the records?
Out: 1.14

----------
Reported Ki values for the following compounds.
- Experimental Target: Glutamate receptor ionotropic, NMDA 2B (Homo sapiens)
- Sequence (Q13224 whole entry): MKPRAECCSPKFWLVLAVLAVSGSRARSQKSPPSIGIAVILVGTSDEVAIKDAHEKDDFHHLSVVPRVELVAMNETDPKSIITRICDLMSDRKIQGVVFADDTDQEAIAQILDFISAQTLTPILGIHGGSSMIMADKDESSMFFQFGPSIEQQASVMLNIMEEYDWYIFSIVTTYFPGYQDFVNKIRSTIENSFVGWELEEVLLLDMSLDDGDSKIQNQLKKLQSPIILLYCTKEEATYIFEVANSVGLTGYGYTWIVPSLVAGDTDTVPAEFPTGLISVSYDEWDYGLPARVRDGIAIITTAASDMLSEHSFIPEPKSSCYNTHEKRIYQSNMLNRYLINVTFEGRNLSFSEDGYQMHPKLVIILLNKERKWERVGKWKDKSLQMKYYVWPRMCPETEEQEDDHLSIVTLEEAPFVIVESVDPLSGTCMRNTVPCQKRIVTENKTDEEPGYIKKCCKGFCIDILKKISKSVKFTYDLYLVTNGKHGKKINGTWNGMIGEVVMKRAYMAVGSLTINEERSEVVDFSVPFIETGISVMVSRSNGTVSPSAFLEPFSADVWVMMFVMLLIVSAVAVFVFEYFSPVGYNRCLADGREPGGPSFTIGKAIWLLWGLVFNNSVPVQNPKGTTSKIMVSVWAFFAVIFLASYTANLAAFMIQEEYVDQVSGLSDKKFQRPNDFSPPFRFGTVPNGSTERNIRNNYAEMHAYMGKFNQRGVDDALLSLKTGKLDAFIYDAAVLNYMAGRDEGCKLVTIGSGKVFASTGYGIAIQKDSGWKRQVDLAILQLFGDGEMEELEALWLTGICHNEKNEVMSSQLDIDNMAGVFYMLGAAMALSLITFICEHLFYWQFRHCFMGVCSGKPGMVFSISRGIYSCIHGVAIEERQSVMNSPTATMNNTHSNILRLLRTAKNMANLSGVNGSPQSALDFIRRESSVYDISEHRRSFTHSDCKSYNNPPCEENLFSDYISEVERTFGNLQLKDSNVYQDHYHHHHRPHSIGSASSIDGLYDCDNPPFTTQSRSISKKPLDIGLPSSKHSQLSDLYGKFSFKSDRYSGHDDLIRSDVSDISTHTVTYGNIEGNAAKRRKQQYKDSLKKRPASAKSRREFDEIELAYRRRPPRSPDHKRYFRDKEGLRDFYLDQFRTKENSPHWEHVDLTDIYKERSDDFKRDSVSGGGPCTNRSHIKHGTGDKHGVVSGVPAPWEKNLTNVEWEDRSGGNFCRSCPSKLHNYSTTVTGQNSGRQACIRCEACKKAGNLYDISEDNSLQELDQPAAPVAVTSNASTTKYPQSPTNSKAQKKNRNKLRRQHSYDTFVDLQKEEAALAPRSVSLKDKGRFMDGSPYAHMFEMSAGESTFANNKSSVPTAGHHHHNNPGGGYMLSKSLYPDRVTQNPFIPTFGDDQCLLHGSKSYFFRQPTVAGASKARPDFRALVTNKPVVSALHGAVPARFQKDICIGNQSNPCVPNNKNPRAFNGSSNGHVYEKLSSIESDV
- Measurement Protocol: Displacement of [3H]ifenprodil from recombinant human GluN2B NMDA receptor (unknown origin) expressed in dexamethasone-induced mouse L-M(TK-) cell after 120 mins by microbeta scintillation counting method

INSERT INTO measurements (mol_smiles, assay_value) VALUES
  ('Cc1ccccc1N1CCN(CCC(=O)Nc2nc3c(C)cccc3s2)CC1', '> 1000 nM'),
  ('CCOCCN1CCN(CCC(=O)Nc2nc3c(C)cccc3s2)CC1', '> 1000 nM');

Okay, next one:
In: Please look up its Ki: Cc1cccc2sc(NC(=O)CCN3CCN(C(C)C)CC3)nc12
Out: > 1000 nM
